target: wild-type Epidermal Growth Factor Receptor (EGFR) (Homo sapiens (Human), UniProt P00533); experiment: WT-EGFR Kinase Assay (TR-FRET, 2 mM ATP); type: biochemical; conditions: read-out: EGFR Wildtyp- 2 mM ATP IC50 [mol/l] (median)
Sequence (P00533 669-1210): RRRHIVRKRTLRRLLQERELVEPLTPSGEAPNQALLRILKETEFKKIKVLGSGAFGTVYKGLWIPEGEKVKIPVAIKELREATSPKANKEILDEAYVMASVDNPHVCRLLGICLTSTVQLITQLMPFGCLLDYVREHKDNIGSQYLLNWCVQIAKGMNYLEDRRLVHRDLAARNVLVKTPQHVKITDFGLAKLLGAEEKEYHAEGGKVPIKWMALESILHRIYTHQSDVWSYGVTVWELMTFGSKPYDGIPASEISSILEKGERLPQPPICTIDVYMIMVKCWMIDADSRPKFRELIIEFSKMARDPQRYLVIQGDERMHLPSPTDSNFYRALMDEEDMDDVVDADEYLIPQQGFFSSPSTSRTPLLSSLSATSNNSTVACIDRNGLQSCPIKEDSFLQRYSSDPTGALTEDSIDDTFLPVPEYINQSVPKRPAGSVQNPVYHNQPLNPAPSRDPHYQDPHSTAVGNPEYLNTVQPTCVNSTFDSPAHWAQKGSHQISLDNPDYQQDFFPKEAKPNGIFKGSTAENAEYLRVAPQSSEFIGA
pIC50: −log10 of the molar value.
For each entry below, report its pIC50 value.

Answered examples (2):
molecule="CC(C(=O)Nc1cc(-c2[nH]c3c(c2Nc2ccccc2Cl)C(=O)NCC3)ccn1)c1ccc(F)cc1 (single isomer, unassigned) [Example 16]" measure=pIC50 value_reported="< 4.70"
molecule="CC(C(=O)Nc1cc(-c2[nH]c3c(c2Nc2ccccc2F)C(=O)N(C)CC3)ccn1)c1ccc(F)cc1 (single isomer, unassigned) [Example 42]" measure=pIC50 value_reported="< 4.70"

Here is another molecule to look at.
Enquiry: What measured pIC50 goes with CC1(C)Cc2[nH]c(-c3ccnc(NC(=O)C(CC(F)F)c4ccc(F)cc4)c3)c(Nc3cccc(F)c3)c2C(=O)N1 (single isomer, unassigned; enantiomer 2) [Example 121] ?
Return: < 4.70
